Target: Alpha-mannosidase (Canavalia ensiformis)
Test: Inhibition of jack bean alpha-mannosidase using p-nitrophenyl glycoside as substrate assessed as release of p-nitrophenol at 1000 uM by spectrometric analysis relative to control
QUANTITY NAME: inhibition (%)

> print(dat)
                                        mol  readout.number
1  O[C@H]1[C@H]2[C@H](O)C[C@@H](F)CN2C[C@H]1O             0.5
2  O[C@H]1[C@H]2[C@@H](O)CC(F)(F)CN2C[C@H]1O            12.2
3  O[C@@H]1[C@@H]2[C@@H](O)CC(F)(F)CN2C[C@@H]1O            28.2
4       O[C@H]1[C@H]2[C@@H](O)CCCN2C[C@H]1O              51
5  O[C@@H]1[C@@H]2[C@@H](O)C[C@@H](F)CN2C[C@@H]1O             1.6
6  O[C@@H]1[C@@H]2[C@@H](O)C[C@H](F)CN2C[C@@H]1O             3.9

Entry source: ChEMBL document CHEMBL6096649
